Data credit: ChEMBL document CHEMBL3045245

System: HepG2
Experiment: Cytotoxicity against Homo sapiens (human) HepG2 cells after 48 hr by MTT assay
Type: functional, cell-based
Details: HepG2, 48 h
We begin with a simple list: items and their reported IC50.
Write it as a number; the unit µg/mL goes unstated.

>  <MOLECULE>
CCOC(=O)C1=C(N)Oc2c(ccc3ccc(/C=C/c4ccc(Cl)cc4)nc23)C1c1ccc(Br)cc1 (stereo not drawn)

>  <VALUE>
28.6

$$$$

(Q) Write down IC50 measured for item CCOC(=O)C1=C(N)Oc2c(ccc3ccc(/C=C/c4ccc(Br)cc4)nc23)C1c1ccc(Cl)cc1 (stereo not drawn)
(A) 3.1

(Q) Write down IC50 measured for item CC[C@]1(O)C[C@@H]2CN(CCc3c([nH]c4ccccc34)[C@@](C(=O)OC)(c3cc4c(cc3OC)N(C)[C@H]3[C@@](O)(C(=O)OC)[C@H](OC(C)=O)[C@]5(CC)C=CCN6CC[C@]43[C@@H]65)C2)C1 [VINBLASTINE]
(A) 4.6

(Q) Write down IC50 measured for item CCOC(=O)C1=C(N)Oc2c(ccc3ccc(/C=C/c4ccc(Cl)cc4)nc23)C1c1ccc(Cl)cc1 (stereo not drawn)
(A) 7.9

(Q) Write down IC50 measured for item CCOC(=O)C1=C(N)Oc2c(ccc3ccc(/C=C/c4ccc(F)cc4)nc23)C1c1ccc(Cl)cc1 (stereo not drawn)
(A) 47.5

(Q) Write down IC50 measured for item N#CC1=C(N)Oc2c(ccc3ccc(/C=C/c4ccc(Cl)cc4)nc23)C1c1ccc(Br)cc1 (stereo not drawn)
(A) 23.2

(Q) Write down IC50 measured for item CCOC(=O)C1=C(N)Oc2c(ccc3ccc(/C=C/c4ccc(F)cc4)nc23)C1c1ccc(Br)cc1 (stereo not drawn)
(A) 37.1
